Where do these numbers come from? They come from the supplement of paper PMC3334620.

Target: Upc2 (UniProt Q12151)
Sequence: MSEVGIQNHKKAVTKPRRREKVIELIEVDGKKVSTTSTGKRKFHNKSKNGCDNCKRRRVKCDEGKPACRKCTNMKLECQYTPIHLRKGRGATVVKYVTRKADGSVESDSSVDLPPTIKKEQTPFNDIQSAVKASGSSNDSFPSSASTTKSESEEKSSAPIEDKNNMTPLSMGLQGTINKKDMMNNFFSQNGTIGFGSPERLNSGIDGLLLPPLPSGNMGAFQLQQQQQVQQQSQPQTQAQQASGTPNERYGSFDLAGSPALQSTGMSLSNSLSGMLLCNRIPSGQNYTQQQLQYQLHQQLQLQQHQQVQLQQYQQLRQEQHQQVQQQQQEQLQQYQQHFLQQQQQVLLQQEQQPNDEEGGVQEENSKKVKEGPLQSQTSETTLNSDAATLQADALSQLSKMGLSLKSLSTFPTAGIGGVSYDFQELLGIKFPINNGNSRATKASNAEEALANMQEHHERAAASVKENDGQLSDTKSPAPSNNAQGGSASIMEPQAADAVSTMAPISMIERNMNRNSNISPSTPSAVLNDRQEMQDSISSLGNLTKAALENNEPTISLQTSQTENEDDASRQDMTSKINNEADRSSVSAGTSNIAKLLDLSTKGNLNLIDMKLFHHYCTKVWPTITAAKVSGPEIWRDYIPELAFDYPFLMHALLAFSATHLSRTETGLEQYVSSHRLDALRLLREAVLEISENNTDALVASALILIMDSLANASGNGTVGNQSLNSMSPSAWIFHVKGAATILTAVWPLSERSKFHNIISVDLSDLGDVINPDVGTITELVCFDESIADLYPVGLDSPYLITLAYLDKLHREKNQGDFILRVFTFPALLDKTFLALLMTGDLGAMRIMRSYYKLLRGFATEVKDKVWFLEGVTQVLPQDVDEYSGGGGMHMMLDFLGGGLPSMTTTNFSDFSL
Assay: PBM E-score (8-mer binding enrichment) (E-score (-0.5 to 0.5)); higher = stronger / more preferred TF binding
Details: protein concentration: 200 nM; construct: GST-full length
Over roughly 33,000 sequences, “E-score (-0.5 to 0.5)” has its median near -0.043; the highest 2% begin near 0.37. For the sample, the highest values were picked, then their nearest neighbours and some sequences at random.
Recorded PBM E-score determines the label; the label ranges are low range: < -0.03; mid range: ≥ -0.03 and < 0.1; high range: ≥ 0.1

- SEQUENCE INPUT: "GGACCTAC"
  CATEGORY: "mid range"
- SEQUENCE INPUT: "GTGTCGGA"
  CATEGORY: "mid range"
- SEQUENCE INPUT: "CATATACC"
  CATEGORY: "mid range"
- SEQUENCE INPUT: "GATAGAAA"
  CATEGORY: "mid range"
- SEQUENCE INPUT: "CGTTTAAC"
  CATEGORY: "high range"
- SEQUENCE INPUT: "CGCCCAAG"
  CATEGORY: "low range"
- SEQUENCE INPUT: "CGTATACA"
  CATEGORY: "high range"
- SEQUENCE INPUT: "CATATACA"
  CATEGORY: "mid range"
- SEQUENCE INPUT: "CGTCGTCC"
  CATEGORY: "low range"
- SEQUENCE INPUT: "ATTATACG"
  CATEGORY: "high range"
- SEQUENCE INPUT: "AGTTCAAG"
  CATEGORY: "high range"
- SEQUENCE INPUT: "ATTGTACG"
  CATEGORY: "high range"
- SEQUENCE INPUT: "CCTACGCA"
  CATEGORY: "low range"
- SEQUENCE INPUT: "AAGCTAGA"
  CATEGORY: "low range"
- SEQUENCE INPUT: "CCCGAGCC"
  CATEGORY: "low range"
- SEQUENCE INPUT: "AGTCGTAC"
  CATEGORY: "high range"
- SEQUENCE INPUT: "CGTCGTAG"
  CATEGORY: "high range"
- SEQUENCE INPUT: "CCTATACG"
  CATEGORY: "high range"
- SEQUENCE INPUT: "AAGAACGG"
  CATEGORY: "mid range"
- SEQUENCE INPUT: "AGTTCCAG"
  CATEGORY: "low range"
- SEQUENCE INPUT: "CTGTCGTA"
  CATEGORY: "high range"
- SEQUENCE INPUT: "ATCGTGAG"
  CATEGORY: "low range"
- SEQUENCE INPUT: "CTCAATAA"
  CATEGORY: "low range"
- SEQUENCE INPUT: "AGTATACG"
  CATEGORY: "high range"
- SEQUENCE INPUT: "CATCGTCG"
  CATEGORY: "high range"
- SEQUENCE INPUT: "ACCGAACT"
  CATEGORY: "mid range"
- SEQUENCE INPUT: "GCTTCACA"
  CATEGORY: "low range"
- SEQUENCE INPUT: "CTCTGTCC"
  CATEGORY: "low range"
- SEQUENCE INPUT: "AGTCGTGC"
  CATEGORY: "low range"
- SEQUENCE INPUT: "CCATCAAG"
  CATEGORY: "low range"
- SEQUENCE INPUT: "CTTAGCGC"
  CATEGORY: "high range"
- SEQUENCE INPUT: "AAGAACGA"
  CATEGORY: "high range"
- SEQUENCE INPUT: "CGTTTAAG"
  CATEGORY: "high range"
- SEQUENCE INPUT: "CGTTCCGC"
  CATEGORY: "high range"
- SEQUENCE INPUT: "CTACCATC"
  CATEGORY: "mid range"
- SEQUENCE INPUT: "ATGGCTCA"
  CATEGORY: "low range"
- SEQUENCE INPUT: "ATGTGAAC"
  CATEGORY: "mid range"
- SEQUENCE INPUT: "GGTCGCAC"
  CATEGORY: "high range"
- SEQUENCE INPUT: "GAGCAGCA"
  CATEGORY: "low range"
- SEQUENCE INPUT: "CGTCGTAC"
  CATEGORY: "high range"
- SEQUENCE INPUT: "ATCAGACG"
  CATEGORY: "mid range"
- SEQUENCE INPUT: "CCGTTTCA"
  CATEGORY: "high range"
- SEQUENCE INPUT: "AAATGCAG"
  CATEGORY: "low range"
- SEQUENCE INPUT: "TCGTAAGA"
  CATEGORY: "high range"
- SEQUENCE INPUT: "GGAAGCGA"
  CATEGORY: "high range"
- SEQUENCE INPUT: "ACAGATGC"
  CATEGORY: "mid range"
- SEQUENCE INPUT: "GTAAGCGA"
  CATEGORY: "high range"
- SEQUENCE INPUT: "ATGATCCG"
  CATEGORY: "low range"
- SEQUENCE INPUT: "CTTGCAGA"
  CATEGORY: "low range"
- SEQUENCE INPUT: "CCTGTACG"
  CATEGORY: "high range"
- SEQUENCE INPUT: "CTCCCAAA"
  CATEGORY: "low range"
- SEQUENCE INPUT: "GGTTCAAC"
  CATEGORY: "mid range"
- SEQUENCE INPUT: "CGTAGGGA"
  CATEGORY: "low range"
- SEQUENCE INPUT: "CCTGTACA"
  CATEGORY: "low range"
- SEQUENCE INPUT: "TCGTAACA"
  CATEGORY: "high range"
- SEQUENCE INPUT: "ACACCAGC"
  CATEGORY: "low range"
- SEQUENCE INPUT: "CCGTAACA"
  CATEGORY: "high range"
- SEQUENCE INPUT: "ACCCACAC"
  CATEGORY: "high range"
- SEQUENCE INPUT: "AATGAGCT"
  CATEGORY: "low range"
- SEQUENCE INPUT: "TCTGATCA"
  CATEGORY: "low range"
- SEQUENCE INPUT: "AATATACT"
  CATEGORY: "low range"
- SEQUENCE INPUT: "CAGAACGA"
  CATEGORY: "high range"
- SEQUENCE INPUT: "GCAGTTTA"
  CATEGORY: "mid range"
- SEQUENCE INPUT: "CGTAGTAG"
  CATEGORY: "high range"
- SEQUENCE INPUT: "ACTATACT"
  CATEGORY: "high range"
- SEQUENCE INPUT: "AGTCGTCC"
  CATEGORY: "low range"
- SEQUENCE INPUT: "CGACTGAA"
  CATEGORY: "high range"
- SEQUENCE INPUT: "ATTGCTGG"
  CATEGORY: "low range"
- SEQUENCE INPUT: "CGTTCAAG"
  CATEGORY: "high range"
- SEQUENCE INPUT: "GGACGTAC"
  CATEGORY: "high range"
- SEQUENCE INPUT: "CTCGCTCC"
  CATEGORY: "high range"
- SEQUENCE INPUT: "CTGTCGAA"
  CATEGORY: "low range"
- SEQUENCE INPUT: "GGTCGTAC"
  CATEGORY: "high range"
- SEQUENCE INPUT: "CCGTTCCG"
  CATEGORY: "high range"
- SEQUENCE INPUT: "AAAGGTGG"
  CATEGORY: "low range"
- SEQUENCE INPUT: "CAACCTCA"
  CATEGORY: "low range"
- SEQUENCE INPUT: "CGTTCAAC"
  CATEGORY: "high range"
- SEQUENCE INPUT: "AAGAACGT"
  CATEGORY: "high range"
- SEQUENCE INPUT: "GGTATACA"
  CATEGORY: "mid range"
- SEQUENCE INPUT: "CAATCTTA"
  CATEGORY: "mid range"
- SEQUENCE INPUT: "ATGTCGTA"
  CATEGORY: "high range"
- SEQUENCE INPUT: "AACGCAAT"
  CATEGORY: "high range"
- SEQUENCE INPUT: "CGATTTGC"
  CATEGORY: "low range"
- SEQUENCE INPUT: "ATAAGCGA"
  CATEGORY: "high range"
- SEQUENCE INPUT: "ACTATACA"
  CATEGORY: "high range"
- SEQUENCE INPUT: "TGTTTAAA"
  CATEGORY: "mid range"
- SEQUENCE INPUT: "AGTTTAAA"
  CATEGORY: "high range"
- SEQUENCE INPUT: "CCTATACA"
  CATEGORY: "high range"
- SEQUENCE INPUT: "GGTTTAAC"
  CATEGORY: "high range"
- SEQUENCE INPUT: "ATGTCGTC"
  CATEGORY: "mid range"
